Tested on: MS2 coat protein
method description: apparent Kd, MS2 coat protein; higher = weaker binding; RNA-MaP array; FMN 200 µM where present
recorded conditions: ligand present: flavin mononucleotide; designed as: OFF switch for flavin mononucleotide
property name: apparent Kd (nM)
State just the number; it will be interpreted in nM.

| record sequence | measured target | readout unit | number |
| --- | --- | --- | --- |
| AAUCAGUCAGGAUAUCGUUAAUUUAAUUGUUUGUUUUAGUUCGAGAAGGGACAUGAGGAUCACCCAUGUACUCA | MS2 coat protein | nM | 28.8 |

Problem: Fill in: apparent Kd of "GUGUAGCAAGGAUAUACAUGAGGAUCACCCAUGUGAAUAAGAUAGAAUAAGAUAAAGUGUAGAAGGUGCAGUGU" is ___
Result: 34.4

Problem: Fill in: apparent Kd of "UUAUAUAGAGUGAGGAUAUGCUGGUCCUUGGAUCAGCAGAAGGCACAUGAGGAUCACCCAUGUAAUAUAAUAUU" is ___
Result: 42

---

Documented apparent Kd across a set of sequences
Test system: MS2 coat protein
method description: apparent Kd, MS2 coat protein; higher = weaker binding; RNA-MaP array; FMN 200 µM where present
recorded conditions: ligand present: flavin mononucleotide; designed as: OFF switch for flavin mononucleotide
Hey, just the number and the unit after it is fine.

Problem: Fill in: apparent Kd of "GGUGGUCUUGUGAGGAUAUGGUUGGAUGCAUAUGAUCAGAAGGCACAUGAGGAUCACCCAUGUGGAAUACCACU" is ___
Result: 234 nM

Problem: Fill in: apparent Kd of "AAUUAUAUACAGAAGGAGUUAUAUUGAGUAUUACUAGGAUAUGUUCACAUGAGGAUCACCCAUGUCAUAUUGGGAUUUAUUAUA" is ___
Result: 27.9 nM

Problem: Fill in: apparent Kd of "CCGACCUUGGCAGGAUAUAGACUCGAAGUUGAUCCCGCCGAUGGAGACAUGAGGAUCACCCAUGUCUAGAAGGGCCAGUCGAAA" is ___
Result: 46.1 nM

Problem: Fill in: apparent Kd of "UUAUACAUGAGGAUCUCCCAUGACAUGAGGAUCACCCAUGUGCAGGAUAUACGUGUUAUAAUAUAGUAGAAGGGCAGACUAUAU" is ___
Result: 74.3 nM

---

Documented apparent Kd across a set of sequences
Tested on: MS2 coat protein
method description: apparent Kd, MS2 coat protein; higher = weaker binding; RNA-MaP array
recorded conditions: ligand present: flavin mononucleotide; designed as: OFF switch for flavin mononucleotide
State just the number; it will be interpreted in µM.

# example entries with known answers
| record sequence | readout unit | apparent Kd |
| --- | --- | --- |
| CCAGAAGCAGGAUAUACAUGAGGAUCACCCAUGUUAAACAAUAUGACGAGCAUAGUCAGUAGAAGGGCAACUCA | µM | 0.0161 |
| CCACAGACAUGAGGAUCACCCAUGUAGUUGGGCGUGUCAUCUCAGGAUAUGGCAACGCUUAUGAGCCAGAAGGGAGAAGGUUAU | µM | 0.0128 |
| CACACCGAAGGAUAUACUACUGCUAUUUAGAGUGAGGGCGAACAUGAGGAUCACCCAUGUAGAAGGUCGAGAAA | µM | 0.0206 |
| CCACCCGACAUGAGGAUCACCCAUGUAGAUGAUCCUGUACCAUAGGAUAUAGGCGUAAGAGAGAUCUAGAAGGAUGUACAACCC | µM | 0.0735 |
| AAAAGAGAAGGAUAUACAGGAAAAGAAAAGAUAUUUCAAUAACAUGAGGAUCACCCAUGUAGAAGGACUAAUAG | µM | 0.00974 |

Proceed to the following item.
Problem: Fill in: apparent Kd of "CUCCUCGUAGGAUAUCGCACCGCGUACAUGAGGAUCACCCAUGUGAUUCUAUAGAUUAAGCGAGAAGGACGACAGG" is ___
Result: 0.269
